- tested-on: human FFAR1 (GPR40) (Homo sapiens, UniProt O14842)
- Construct: Flag
- Sequence (O14842 whole entry): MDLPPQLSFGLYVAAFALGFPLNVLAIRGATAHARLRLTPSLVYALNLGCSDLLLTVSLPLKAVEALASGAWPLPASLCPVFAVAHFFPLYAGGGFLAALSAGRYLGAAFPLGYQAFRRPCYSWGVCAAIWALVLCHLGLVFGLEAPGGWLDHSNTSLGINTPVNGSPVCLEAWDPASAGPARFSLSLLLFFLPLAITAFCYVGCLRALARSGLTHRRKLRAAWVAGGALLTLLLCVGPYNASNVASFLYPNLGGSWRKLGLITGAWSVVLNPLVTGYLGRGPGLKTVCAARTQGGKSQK
- experiment: NFAT-RE-based reporter gene activity assay (Dual-Glo luciferase) for GPR40 agonistic activity in co-transfected HEK293T cells
- measurement-conditions: 4-hour treatment
Here, each record is paired with measured EC50 data.

Q: Form field - read-out: EC50; system: human FFAR1 (GPR40) (Homo sapiens, UniProt O14842); submitted item: COc1cccc(N2CCC(c3oc4cc([C@@H](CC(=O)O)C5CC5)ccc4c3C(=O)N(C)c3cc([N+](=O)[O-])ccc3Cl)CC2)c1
Ans: 100 to 500 nM

Q: Form field - read-out: EC50; system: human FFAR1 (GPR40) (Homo sapiens, UniProt O14842); submitted item: COc1ccc(F)c(N2CCC(c3oc4cc([C@@H](CC(=O)O)C5CC5)ccc4c3C(=O)Nc3cc(C(F)(F)F)ccc3Cl)CC2)c1
Ans: < 10 nM

Q: Form field - read-out: EC50; system: human FFAR1 (GPR40) (Homo sapiens, UniProt O14842); submitted item: CC(c1ccccc1OC(F)(F)F)N1CCC(c2oc3cc(C(CC(=O)O)C4CC4)ccc3c2C(=O)Nc2ccccc2F)CC1 (stereo not shown)
Ans: 100 to 500 nM

Q: Form field - read-out: EC50; system: human FFAR1 (GPR40) (Homo sapiens, UniProt O14842); submitted item: CC(C)(C)c1cccc(-c2c(C3CCN(c4cccc(F)c4)CC3)oc3cc(C(CC(=O)O)C4CC4)ccc23)c1 (stereo not shown)
Ans: > 500 nM

Q: Form field - read-out: EC50; system: human FFAR1 (GPR40) (Homo sapiens, UniProt O14842); submitted item: COc1cccc(N2CCC(c3oc4cc(C(CC(=O)O)C5CC5)ccc4c3-c3ncc(C(C)C)s3)CC2)c1 (stereo not shown)
Ans: 10 to 100 nM

Q: Form field - read-out: EC50; system: human FFAR1 (GPR40) (Homo sapiens, UniProt O14842); submitted item: COc1cccc(N2CCC(c3oc4cc([C@@H](CC(=O)O)C5CC5)ccc4c3-c3cncc(C)c3)CC2)c1
Ans: > 500 nM

Q: Form field - read-out: EC50; system: human FFAR1 (GPR40) (Homo sapiens, UniProt O14842); submitted item: Cc1cccc(-c2c(C3CCN(c4ccc5c(c4)OCO5)CC3)oc3cc(C(CC(=O)O)C4CC4)ccc23)c1 (stereo not shown)
Ans: 100 to 500 nM
